experimental details: Mycobacterium tuberculosis growth inhibition, primary screen (AID 1259343)
applied conditions: at 10 µM, active compounds read high
In all, about 6,200 compounds went through this assay and about 2,900 (47%) were called active. The set was probably picked from earlier hits. This is one part of the list.
test readout: inhibition (%)
Please reply with the bare figure in % and do not write the unit itself.

O=C(O)C1Nc2ccc(Br)cc2C2C=CCC12 (stereo not drawn) = 84.2
COc1ccc(OCc2nc(C#N)c(N3CCCC3)o2)cc1 = -23.3
CN(CCC#N)c1ccc(C=NNC(N)=S)cc1 = 29.2
O=C(O)C1Nc2c(Cl)cc(Cl)cc2C2C=CCC12 (stereo not drawn) = 101
CC(C)NC(=O)NC(=O)COC(=O)C1CC1 = 23.7

Exam item: Name the recorded inhibition for "Cc1ccc(C2=CCN(Cc3nc4ccsc4c(=O)[nH]3)CC2)cc1" .
Marked response: 94.7

Exam item: Name the recorded inhibition for "CN1CCc2c(sc(NC(=O)c3ccccc3)c2-c2nc3ccccc3s2)C1" .
Marked response: 29.3

Exam item: Name the recorded inhibition for "CN(C)[C@@H]1C(=O)C(C(N)=O)=C(O)[C@@]2(O)C(=O)C3=C(O)c4c(O)cccc4[C@@](C)(O)[C@H]3C[C@@H]12" .
Marked response: 60.8

Exam item: Name the recorded inhibition for "CN1CCc2c(sc(NC(=O)c3ccc(F)cc3)c2-c2nc3ccccc3s2)C1" .
Marked response: 31.8

Exam item: Name the recorded inhibition for "CC(=O)c1ccc(C(=O)Nc2sc3c(c2-c2nc4ccccc4s2)CCN(C)C3)cc1" .
Marked response: 83.8
